Numbers sourced from ChEMBL document CHEMBL1155362.

Test system: HepG2
assay_comment: Cytotoxicity against human HepG2 cells assessed as surviving fraction after 48 hrs by SRB assay
Type: functional, cell-based
protocol_conditions: Homo sapiens, HepG2, 48 h; read-out: IC50
Listed molecules paired with reported IC50
Give a bare numeral; the unit µg/mL is implied.

# example entries with known answers
{"columns": ["compound_string", "tested_system", "IC50 [µg/mL]"],
 "data": [
  ["Cc1ccc(-n2c(=O)n(-c3ccc(Cl)cc3)c3nc4cc(C)ccc4nc32)cc1", "HepG2", 4.43],
  ["NNc1nnc2c(n1)n(-c1ccc(Cl)cc1)c(=O)n2-c1ccc(Cl)cc1", "HepG2", 1.54],
  ["O=c1n(-c2ccc(Cl)cc2)c2nc3ccccc3nc2n1-c1ccc(Cl)c(Cl)c1", "HepG2", 7.11]
]}

Please look at the following molecule next.
Annotate the molecule `CCOc1ccc(N2C(=O)N(c3c(CC)cc(Cc4cc(CC)c(N5C(=N)C(=S)N(c6ccc(OCC)cc6)C5=O)c(CC)c4)cc3CC)C(=N)C2=S)cc1` with its measured IC50.
5.44
